Target sequence: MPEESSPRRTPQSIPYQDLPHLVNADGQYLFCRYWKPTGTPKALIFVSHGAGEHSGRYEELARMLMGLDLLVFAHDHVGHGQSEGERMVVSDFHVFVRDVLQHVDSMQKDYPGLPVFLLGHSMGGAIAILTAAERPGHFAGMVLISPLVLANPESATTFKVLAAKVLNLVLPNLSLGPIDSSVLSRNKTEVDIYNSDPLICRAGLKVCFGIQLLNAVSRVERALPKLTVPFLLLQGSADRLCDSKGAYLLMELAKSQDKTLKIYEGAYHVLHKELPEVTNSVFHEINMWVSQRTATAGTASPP
pIC50: −log10 of the molar value.
pIC50 of 8 or higher: y. Under 8: n.

Record excerpt, results attached:
Cn1ncc(OC2CC3(C2)CN(C(=O)N2CC4(CC(n5cnc(C6CC6)n5)C4)C2)C3)c1C(F)(F)F
y
O=C(N1CC2(CC(Cn3ccnc3C(F)(F)F)C2)C1)N1CC2(CC(c3cc(C4CC4)n[nH]3)C2)C1
y

*Q* Entry O=C(N1CC2(CC(Cc3cc(C4(C(F)(F)F)CC4)[nH]n3)C2)C1)N1CC2(CC(n3cnc(C(F)(F)F)n3)C2)C1 : is its pIC50 no less than 8?
*A* y

*Q* Quick check: does O=C(N1CC2(CC(n3cnc(C4CC4)n3)C2)C1)N1CC2(CN(Cc3ncc(C(F)F)s3)C2)C1 have pIC50 greater than or equal to 8?
*A* y

*Q* Check the entry CS(=O)(=O)c1cnn(CC2CC3(C2)CN(C(=O)N2CC4(CC(n5cnc(C6(O)CC6)n5)C4)C2)C3)c1 : does pIC50 equal or exceed 8?
*A* n

*Q* Kindly determine if pIC50 recorded for O=C(N1CC2(CC(n3cnc(C4CC4)n3)C2)C1)N1CC2(CN(Cc3nc[nH]c3C(F)(F)F)C2)C1 is above or exactly 8.
*A* n

*Q* Is pIC50 at least 8? Consider O=C(N1CC2(CC(n3cnc(C(F)(F)F)n3)C2)C1)N1CC2(CN(Cc3nc(C4CC4)cs3)C2)C1
*A* n

*Q* # check: pIC50 of Cn1c(CN2CC3(C2)CN(C(=O)N2CC4(CC(n5cnc(C(F)(F)F)n5)C4)C2)C3)nnc1C(F)(F)F is greater than or equal to 8
*A* n

*Q* Entry Cc1cc(C2CC2)nn1CC1CC2(C1)CN(C(=O)N1CC3(CC(n4cnc(C5CC5)n4)C3)C1)C2 : is its pIC50 no less than 8?
*A* y

*Q* Please indicate if the recorded pIC50 for O=C(N1CC2(CC(Cc3cn(C4CC4)nc3C(F)(F)F)C2)C1)N1CC2(CC(n3cnc(C4CC4)n3)C2)C1 meets or exceeds 8.
*A* y

* * *

Protein target, amino acids: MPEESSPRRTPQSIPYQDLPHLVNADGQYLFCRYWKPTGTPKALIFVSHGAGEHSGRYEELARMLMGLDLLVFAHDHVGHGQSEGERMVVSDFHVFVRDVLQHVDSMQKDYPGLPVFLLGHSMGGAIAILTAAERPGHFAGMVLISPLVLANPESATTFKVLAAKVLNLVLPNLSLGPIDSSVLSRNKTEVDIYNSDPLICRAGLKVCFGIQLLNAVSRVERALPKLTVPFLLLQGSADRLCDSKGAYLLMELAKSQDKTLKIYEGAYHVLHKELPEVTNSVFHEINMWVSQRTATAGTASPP
pIC50: −log10 of the molar value.
Given measured pIC50, output Yes if it is greater than or equal to 8 and No if not.

*Q* Is it the case that O=C(N1CC2(CC(n3cnc(C4CC4)n3)C2)C1)N1CC2(CN(Cc3noc(C(F)(F)F)n3)C2)C1 [Example 323] has pIC50 reaching or exceeding 8?
*A* No

*Q* pIC50 >= 8 for O=C(N1CC2(CC(Cc3cn[nH]c3C(F)(F)F)C2)C1)N1CC2(CC(n3cnc(C(F)(F)F)n3)C2)C1 [Example 119] ?
*A* Yes

*Q* Quick check, pIC50 >= 8? Cc1cc(C(F)(F)F)n(CC2CC3(C2)CN(C(=O)N2CC4(CC(n5cnc(C(F)(F)F)n5)C4)C2)C3)n1 [Example 71]
*A* Yes

*Q* API: above_or_equal(metric=pIC50, cutoff=8) for item Cn1nc(C2CC2)cc1CN1CC2(C1)CN(C(=O)N1CC3(CC(c4cc(C5CC5)n[nH]4)C3)C1)C2 [Example 270]
*A* Yes

*Q* Confirm if pIC50 reported for the compound O=C(N1CC2(CC(n3cnc(C(F)(F)F)n3)C2)C1)N1CC2(CN(Cc3nc[nH]c3C(F)(F)F)C2)C1 [Example 237] is 8 or above.
*A* No

*Q* Determine whether measured pIC50 meets or exceeds 8 for O=C(N1CC2(CCN(Cc3nc(C(F)(F)F)cs3)CC2)C1)N1CC2(CC(c3cc(C4CC4)n[nH]3)C2)C1 [Example 174]
*A* Yes

Numbers sourced from patent US20260374756A1.
